- System: Escherichia coli TOP10;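 further: peptides expressed intracellularly from a pBAD plasmid library in pooled LB shake-flask culture, induced with 0.3% L-arabinose, DNA abundance read by NGS, three biological replicates, DESeq2 with apeglm shrinkage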
- assay_explanation: shrunken log2 fold change of peptide-encoding DNA abundance (4.5 h post-induction vs induction); higher = less antimicrobial activity (less host growth inhibition)
- run_parameters: time post-induction: 4.5 h; library: site-saturation at positions 5, 18, 19, 20
Kindly supply the reported shrunken log2 fold change values for the records listed here.
Give bare numbers.

| sequence_content | target_under_test | readout_number |
| --- | --- | --- |
| RRIRSRPPRLPRPRPRPMSIPRP | Escherichia coli TOP10 | -0.214 |
| RRIRPRPPRLPRPRPRPAMVPRP | Escherichia coli TOP10 | 0.844 |
| RRIRVRPPRLPRPRPRPAGQPRP | Escherichia coli TOP10 | 0.375 |
| RRIRKRPPRLPRPRPRPNGSPRP | Escherichia coli TOP10 | 0.0677 |
| RRIRCRPPRLPRPRPRPSNCPRP | Escherichia coli TOP10 | -0.0679 |

For each of the sequences below, state shrunken log2 fold change.
1. RRIRVRPPRLPRPRPRPTYRPRP
2. RRIRCRPPRLPRPRPRPCEYPRP
3. RRIRMRPPRLPRPRPRPFQQPRP
4. RRIRWRPPRLPRPRPRPTQVPRP
5. RRIRGRPPRLPRPRPRPHHSPRP
6. RRIRFRPPRLPRPRPRPVQQPRP

Given back:
1. -0.594
2. -0.163
3. -0.00146
4. 0.477
5. -0.196
6. 0.355

Batch lookup, shrunken log2 fold change per entry.
1. RRIRIRPPRLPRPRPRPIDDPRP
2. RRIRCRPPRLPRPRPRPVEWPRP
3. RRIRVRPPRLPRPRPRPSFVPRP
4. RRIRTRPPRLPRPRPRPLGSPRP
5. RRIRIRPPRLPRPRPRPQHCPRP
6. RRIRWRPPRLPRPRPRPLTPPRP

Given back:
1. 0.0145
2. 0.000166
3. -0.422
4. 0.0751
5. -0.248
6. 0.412

State recorded shrunken log2 fold change for all listed sequences.
1. RRIRMRPPRLPRPRPRPQDRPRP
2. RRIRQRPPRLPRPRPRPVYAPRP
3. RRIRYRPPRLPRPRPRPLRVPRP
4. RRIRRRPPRLPRPRPRPHKNPRP
5. RRIRNRPPRLPRPRPRPQHHPRP
6. RRIRHRPPRLPRPRPRPIMRPRP
7. RRIRVRPPRLPRPRPRPRWMPRP
8. RRIRMRPPRLPRPRPRPMVYPRP

Given back:
[0.179, 0.16, -0.0922, 0.126, -0.432, -0.0864, -0.0415, 0.0294]

I need shrunken log2 fold change for every entry listed below, if you could help.
1. RRIRERPPRLPRPRPRPRMYPRP
2. RRIRTRPPRLPRPRPRPQTNPRP
3. RRIRSRPPRLPRPRPRPKAYPRP
4. RRIRIRPPRLPRPRPRPNSWPRP

Given back:
1. -0.723
2. -0.199
3. -0.0451
4. -0.691

Hi! Can you tell me shrunken log2 fold change for each of these sequences?
1. RRIRERPPRLPRPRPRPNETPRP
2. RRIRPRPPRLPRPRPRPHLDPRP
3. RRIRFRPPRLPRPRPRPRVWPRP

Given back:
[-0.0321, 0.158, 0.963]
